target: HLA B*1503 (Homo sapiens, UniProt P01889, A329T/A93T/A95T/C349S/D201E/D98Y/E187L/E204Q/K202T/N87E/Q94N/R155S/R180L/S121R/S35A/V306I/V36M/Y140S/Y91S); assay: biochemical
Where a SMILES comes first, the peptide text is derived from it.
Exam item: assign TRUE to entries whose IC50 is below 3 nM and FALSE to entries at or above 3 nM. Note that a value of exactly 3 nM receives FALSE.

Q: Lab log: compare recorded IC50 with 3 nM; is it strictly lower for CC(C)C[C@H](N)C(=O)N[C@@H](CCCCN)C(=O)N[C@@H](Cc1ccc(O)cc1)C(=O)N[C@@H](Cc1ccc(O)cc1)C(=O)N[C@@H](Cc1ccc(O)cc1)C(=O)N[C@@H](CO)C(=O)N[C@@H](CC(N)=O)C(=O)N[C@@H](CO)C(=O)N[C@@H](Cc1ccc(O)cc1)C(=O)O [3102.1265] (H-LKYYYSNSY-OH) ?
Result: TRUE

Q: Lab log: compare recorded IC50 with 3 nM; is it strictly lower for CC[C@H](C)[C@H](N)C(=O)N[C@@H](CO)C(=O)N[C@H](C(=O)N[C@@H](Cc1ccc(O)cc1)C(=O)N1CCC[C@H]1C(=O)NCC(=O)N[C@@H](CC(N)=O)C(=O)N[C@H](C(=O)N[C@@H](Cc1ccccc1)C(=O)O)[C@@H](C)O)[C@@H](C)O [3102.1229] (H-ISTYPGNTF-OH) ?
Result: TRUE

Q: Lab log: compare recorded IC50 with 3 nM; is it strictly lower for CC(C)C[C@H](NC(=O)[C@H](C)NC(=O)[C@H](CCC(N)=O)NC(=O)[C@H](CCC(N)=O)NC(=O)[C@@H](NC(=O)[C@@H](N)Cc1ccccc1)[C@@H](C)O)C(=O)N[C@@H](CO)C(=O)N[C@@H](CO)C(=O)N[C@@H](Cc1ccccc1)C(=O)O [3102.1087] (H-FTQQALSSF-OH) ?
Result: FALSE

Q: Lab log: compare recorded IC50 with 3 nM; is it strictly lower for CSCC[C@H](NC(=O)[C@H](CC(C)C)NC(=O)[C@H](CCSC)NC(=O)[C@@H](N)Cc1ccccc1)C(=O)N[C@@H](CCC(=O)O)C(=O)N[C@H](C(=O)N[C@@H](CCSC)C(=O)N[C@@H](Cc1ccccc1)C(=O)N[C@@H](Cc1ccccc1)C(=O)O)[C@@H](C)O [3102.1089] (H-FMLMETMFF-OH) ?
Result: TRUE

Q: Lab log: compare recorded IC50 with 3 nM; is it strictly lower for CC[C@H](C)[C@H](NC(=O)[C@H](CO)NC(=O)[C@H](Cc1ccc(O)cc1)NC(=O)[C@@H](NC(=O)[C@H](C)NC(=O)[C@H](Cc1c[nH]cn1)NC(=O)[C@@H](N)CC(C)C)C(C)C)C(=O)N[C@H](C(=O)N[C@@H](Cc1ccccc1)C(=O)O)C(C)C [3102.1145] (H-LHAVYSIVF-OH) ?
Result: FALSE

Q: Lab log: compare recorded IC50 with 3 nM; is it strictly lower for CC[C@H](C)[C@H](NC(=O)[C@H](CCC(N)=O)NC(=O)[C@@H](N)CO)C(=O)N[C@@H](CCC(=O)O)C(=O)N[C@H](C(=O)NCC(=O)N[C@H](C(=O)N1CCC[C@H]1C(=O)N[C@@H](Cc1ccccc1)C(=O)O)[C@@H](C)O)[C@@H](C)O [3102.1253] (H-SQIETGTPF-OH) ?
Result: TRUE

Q: Lab log: compare recorded IC50 with 3 nM; is it strictly lower for CC(C)[C@H](NC(=O)[C@H](Cc1ccc(O)cc1)NC(=O)[C@H](CCCNC(=N)N)NC(=O)[C@@H](NC(=O)[C@H](CC(N)=O)NC(=O)[C@H](Cc1ccc(O)cc1)NC(=O)[C@H](CCCCN)NC(=O)[C@@H](N)CCCCN)C(C)C)C(=O)N[C@@H](Cc1ccccc1)C(=O)O [3102.1267] (H-KKYNVRYVF-OH) ?
Result: TRUE

Q: Lab log: compare recorded IC50 with 3 nM; is it strictly lower for CC(C)C[C@H](N)C(=O)N[C@@H](CCCCN)C(=O)N[C@@H](CO)C(=O)N1CCC[C@H]1C(=O)N[C@@H](CCCCN)C(=O)N[C@@H](CCCNC(=N)N)C(=O)N[C@@H](CS)C(=O)N[C@@H](CO)C(=O)N[C@@H](Cc1ccccc1)C(=O)O [3102.1282] (H-LKSPKRCSF-OH) ?
Result: TRUE

Q: Lab log: compare recorded IC50 with 3 nM; is it strictly lower for CC[C@H](C)[C@H](N)C(=O)N[C@H](C(=O)N[C@@H](CC(C)C)C(=O)N[C@H](C(=O)N[C@@H](CC(N)=O)C(=O)N[C@H](C(=O)N[C@H](C(=O)N[C@@H](CC(N)=O)C(=O)N[C@H](C(=O)O)[C@@H](C)CC)C(C)C)C(C)C)[C@@H](C)O)[C@@H](C)O [3102.0320] (H-ITLTNVVNI-OH) ?
Result: FALSE

Q: Lab log: compare recorded IC50 with 3 nM; is it strictly lower for CC(C)C[C@H](NC(=O)[C@H](Cc1ccc(O)cc1)NC(=O)[C@H](CCC(N)=O)NC(=O)[C@H](CO)NC(=O)[C@H](CCCNC(=N)N)NC(=O)[C@H](CC(N)=O)NC(=O)[C@H](CCC(N)=O)NC(=O)[C@@H](N)CCCNC(=N)N)C(=O)N[C@@H](Cc1ccccc1)C(=O)O [3102.1112] (H-RQNRSQYLF-OH) ?
Result: TRUE

Q: Lab log: compare recorded IC50 with 3 nM; is it strictly lower for CC[C@H](C)[C@H](NC(=O)[C@H](Cc1ccccc1)NC(=O)[C@H](CCC(=O)O)NC(=O)[C@H](Cc1ccccc1)NC(=O)[C@H](C)NC(=O)[C@H](C)N)C(=O)N[C@@H](CC(N)=O)C(=O)N[C@@H](CO)C(=O)N[C@@H](CC(C)C)C(=O)O [3102.1324] (H-AAFEFINSL-OH) ?
Result: FALSE

Q: Lab log: compare recorded IC50 with 3 nM; is it strictly lower for CSCC[C@H](NC(=O)[C@H](CO)NC(=O)[C@H](CCSC)NC(=O)[C@@H](N)CCSC)C(=O)N[C@@H](Cc1ccc(O)cc1)C(=O)NCC(=O)N[C@@H](CCCCN)C(=O)N[C@@H](C)C(=O)N[C@@H](Cc1ccccc1)C(=O)O [3102.1173] (H-MMSMYGKAF-OH) ?
Result: TRUE

Q: Lab log: compare recorded IC50 with 3 nM; is it strictly lower for CC(C)C[C@H](NC(=O)[C@H](CCCCN)NC(=O)[C@H](CC(N)=O)NC(=O)[C@@H](NC(=O)[C@H](Cc1ccccc1)NC(=O)[C@H](CS)NC(=O)[C@@H](NC(=O)[C@H](CCCCN)NC(=O)[C@@H](N)CCCCN)C(C)C)C(C)C)C(=O)O [3102.1086] (H-KKVCFVNKL-OH) ?
Result: FALSE
